- Tested on: isolated rat hemidiaphragms
- test description: Isolated muscle assay for stimulation of glycogen synthesis
- Assay type: cell-based
- measurement conditions: peptide 100 μg/ml
No end group written: not given here.
test readout: Rate of Increase from Basal (glycogen synthesis) (μmol glycogen/g tissue/h)

| sequence data | tgt | measured value |
| --- | --- | --- |
| LSRLFDNA [Pep P051, b240 implies β imide form] | isolated rat hemidiaphragms | 0.74 |
| CYLSRLFDNN [Pep P197] | isolated rat hemidiaphragms | 0.17 |
| LSKLFDNA [Pep P090] | isolated rat hemidiaphragms | 0.16 |
| LSRLFDQA [Pep P076] | isolated rat hemidiaphragms | 0.30 |
| CYLSRLFDNA [Pep P202] | isolated rat hemidiaphragms | 0.44 |
| LSRLHDNA [Pep P078] | isolated rat hemidiaphragms | 0.11 |
| LSRIFDNA [Pep P087] | isolated rat hemidiaphragms | 0.36 |
